- TARGET OR TEST SYSTEM: T1, recombinant hMCAM-His (human, UniProt P43121 24-559)
- T1 chain: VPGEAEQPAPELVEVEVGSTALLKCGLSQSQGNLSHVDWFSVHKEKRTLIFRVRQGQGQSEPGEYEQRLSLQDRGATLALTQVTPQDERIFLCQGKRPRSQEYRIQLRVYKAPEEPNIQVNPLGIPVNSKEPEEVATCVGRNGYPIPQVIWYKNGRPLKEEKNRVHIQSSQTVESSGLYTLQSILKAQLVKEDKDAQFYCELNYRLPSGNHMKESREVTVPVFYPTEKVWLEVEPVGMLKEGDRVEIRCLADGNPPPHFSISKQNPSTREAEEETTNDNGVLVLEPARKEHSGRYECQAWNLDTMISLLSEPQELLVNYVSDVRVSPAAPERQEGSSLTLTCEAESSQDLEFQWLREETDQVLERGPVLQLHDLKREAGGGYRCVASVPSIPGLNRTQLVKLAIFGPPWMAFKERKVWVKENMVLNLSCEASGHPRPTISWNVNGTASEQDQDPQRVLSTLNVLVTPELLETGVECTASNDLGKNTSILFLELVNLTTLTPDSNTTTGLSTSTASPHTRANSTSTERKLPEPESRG
- PROTOCOL SUMMARY: competitive ELISA on coated hMCAM-His, competitor biotinylated rodent or chimeric 2120; IC50 relative to rodent 2120
ENDPOINT NAME: Fold over rodent (ELISA) (fold)
Just the number in fold, nothing appended.

// query Fold over rodent (ELISA) value for entry humanized anti-MCAM antibody h2120_VH4 + h2120_VL3 (antibody, V domains shown, Human IgG1 / human kappa; also called h2120VH4VL3; N-Q deamidate VH + conservative VL) VH: QVTLKESGPVLVKPTETLTLTCTVSGFSLTSQGVSWVRQPPGKALEWIAAISSGGTTYYNSAFKSRLTISRDTSKSQVVLTMTNMDPVDTATYYCARRYGYGWYFDFWGQGTLVTVSS VL: DIQMTQSPSSLSASVGDRVTINCKASQNIYNSLAWYQQKPGKAPKVLIFNANSLQTGIPSRFSGSGSGTDFTLTISSLQPEDFATYYCQQFYSGYTFGQGTKLEIK
5

// query Fold over rodent (ELISA) value for entry humanized anti-MCAM antibody h2120_VH5 + h2120_VL3 (antibody, V domains shown, Human IgG1 / human kappa; also called h2120VH5VL3; VH5VL3) VH: QVTLKESGPVLVKPTETLTLTCTVSGFSLTSNAVSWVRQPPGKALEWIAAISSGGTTYYNSAFKSRLTISRDTSKSQVVLTMTNMDPVDTATYYCARRYGYGWYFDFWGQGTLVTVSS VL: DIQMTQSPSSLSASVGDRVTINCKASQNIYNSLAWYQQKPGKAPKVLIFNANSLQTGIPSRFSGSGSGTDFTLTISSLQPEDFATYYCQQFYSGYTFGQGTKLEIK
2.4
